We begin with a simple list: items and their reported Ki.
# assay-system: human 5-HT1A receptor (Homo sapiens (Human), UniProt P08908)
# Sequence (P08908 whole entry): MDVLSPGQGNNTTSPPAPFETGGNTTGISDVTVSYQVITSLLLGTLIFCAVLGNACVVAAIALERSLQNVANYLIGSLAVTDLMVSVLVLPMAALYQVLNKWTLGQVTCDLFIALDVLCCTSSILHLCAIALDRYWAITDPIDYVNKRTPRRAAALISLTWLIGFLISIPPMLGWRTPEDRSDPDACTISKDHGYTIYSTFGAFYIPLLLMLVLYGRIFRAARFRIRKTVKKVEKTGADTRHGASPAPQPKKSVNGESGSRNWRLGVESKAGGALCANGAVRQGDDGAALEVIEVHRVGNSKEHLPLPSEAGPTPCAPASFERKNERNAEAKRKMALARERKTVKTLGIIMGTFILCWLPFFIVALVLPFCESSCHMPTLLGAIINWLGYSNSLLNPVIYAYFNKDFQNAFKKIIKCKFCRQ

{"chemical-string": "COc1cc2c(cn1)C(=O)N(CCN1CCC(c3noc4ccccc34)CC1)CC2", "Ki (nM)": 0.77}
{"chemical-string": "Cc1ccc2c(C3CCN(CCn4ccc5cccnc5c4=O)CC3)noc2c1", "Ki (nM)": 73.1}
{"chemical-string": "Cn1nc(Br)c2c1CCN(CCN1CCN(c3nsc4ccccc34)CC1)C2=O", "Ki (nM)": 10.4}
{"chemical-string": "Cc1cc2c(cn1)C(=O)N(CCN1CCC(c3noc4ccccc34)CC1)CC21CC1", "Ki (nM)": 8.62}
{"chemical-string": "COc1ccc2c(n1)C(=O)N(CCN1CCC(c3noc4ccccc34)CC1)CC2", "Ki (nM)": 1.59}
{"chemical-string": "COc1ncc2c(n1)CCN(CCN1CCN(c3noc4ccccc34)CC1)C2=O", "Ki (nM)": 283}
